procedure.summary: qHTS assay to identify small molecule agonists of the endoplasmic reticulum stress response signaling pathway (AID 1159516)
test.settings: ESRE-bla HeLa, ER stress beta-lactamase reporter, 5 h; series mostly up to 61 µM
Inconclusive results are not listed. Active and inactive are the calls of the source. Calls come from the whole dose curve; as a rule, active = well fitted activation curve with a large enough effect in the signal ratio in the repeat runs (not every such curve was filed as active); inconclusive = weak or mixed curves, or effect the other way; inactive = flat fitted curve, though single readings scatter; the % refers to the signal ratio.
measured.parameter: outcome

Take a look at these entries with their results.
O=P(O)(O)O; inactive
CCCCOCCOCCO; inactive
COC(=O)c1ccccc1; inactive
CN1C(C(=O)Nc2ccccn2)=C(O)c2ccccc2S1(=O)=O; inactive
CCCc1c(OCCCCc2nn[nH]n2)ccc(C(C)=O)c1O; inactive

Prompt line: Which outcome is listed for CC(C)=CCCC(C)CCO (centres undefined) ?
Response line: inactive

Prompt line: Entry CC(C(=O)O)c1cccc(C(=O)c2ccccc2)c1 (centres undefined) : reported outcome = ?
Response line: inactive

Prompt line: Quick one: outcome for `CC(=O)CC/C=C(\C)CCC=C(C)C` ?
Response line: inactive

Prompt line: Suppose we examine the molecule `Cc1c(C(N)=O)cc([N+](=O)[O-])cc1[N+](=O)[O-]` ; what outcome value has been reported?
Response line: inactive

Prompt line: Item `CN(C)c1nc(N(C)C)nc(N(C)C)n1` has what recorded outcome?
Response line: inactive

Origin of the recorded values: PubChem BioAssay (Tox21)
